Molecular target: T1, huNav1.7α + β1-β2-β3 (human Nav1.7α co-expressed with human Navβ1, Navβ2 and Navβ3 on cells) (human)
T1 construct: also called huNav1.7-beta1-beta2-beta3; CHO FlpIn huNav1.7α + β1-β2-β3
Test: binding FACS, CHO FlpIn cells
Consider the following binders and their measured EC50 readings.
// note: answer is a bare numeric in nM

Examples with their reported EC50 follow.
binder: F010302318 (VHH, also called F0103387G04(L11V, A12V, K33R, R39Q, S50Y, S56D, T60A, W78V, S79Y, T83R, V89L, N93R, S100R, N100cI)) VHH: EVQLVESGGGVVQPGGSLRLSCAASGPVFNINRMAWYRQAPGKQRELVAYVTPTGDISYADSVKGRFTISRDGSKRVYLQMNSLRPEDTALYYCRALLQPDRYSITRTYWGQGTLVTVSS
EC50 / nM: 11

binder: F010301656 (VHH, also called F0103387G04(K33R, S50Y, S56D, N93R)) VHH: EVQLVESGGGLAQPGGSLRLSCAASGPVFNINRMAWYRRAPGKQRELVAYVTPTGDISYTDSVKGRFTISRDGSKRWSLQMNSLTPEDTAVYYCRALLQPDSYSNTRTYWGQGTLVTVSS
EC50 / nM: 17

binder: F010302312 (VHH, also called F0103387G04(L11V, A12V, K33R, R39Q, S50Y, S56D, T60A, W78V, S79Y, T83R, V89L, N93R, N100cI)) VHH: EVQLVESGGGVVQPGGSLRLSCAASGPVFNINRMAWYRQAPGKQRELVAYVTPTGDISYADSVKGRFTISRDGSKRVYLQMNSLRPEDTALYYCRALLQPDSYSITRTYWGQGTLVTVSS
EC50 / nM: 24

-- ask Fill in the blank: the reported EC50 of F010301847 (VHH, also called F0103387G04(L11V, A12V, K33R, R39Q, S50Y, S56D, T60A, G73N, R76N, W78V, S79Y, T83R, V89L, N93R)) VHH: EVQLVESGGGVVQPGGSLRLSCAASGPVFNINRMAWYRQAPGKQRELVAYVTPTGDISYADSVKGRFTISRDNSKNVYLQMNSLRPEDTALYYCRALLQPDSYSNTRTYWGQGTLVTVSS is ____.
-- reply 67
